src = paper PMC5540273

System: GRK7;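 note: KINOMEscan kinase panel screen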
Conditions: concentration: 1 μM, replicates: in singlicate; n = 1
Listed here are compounds together with their documented %Inh.
Your answer should be a plain number; it is taken to be in %.

* O=C(Nc1cccc(Oc2ccc3nc(NC(=O)C4CC4)cn3n2)c1)c1ccccc1C(F)(F)F | 0

Asked: # lookup: %Inh of COc1cccc(C(=O)Nc2cccc(Oc3ccc4nc(NC(=O)C5CC5)cn4n3)c2)c1
Given back: 0

Asked: # lookup: %Inh of Fc1ccc(-c2ncn(C3CCNCC3)c2-c2ccnc(Oc3ccc(-c4ccccc4)cc3)n2)cc1
Given back: 32

Asked: # lookup: %Inh of O=c1[nH]cc(-c2ccc(N3CCOCC3)cc2)c2sc(-c3cn[nH]c3)cc12
Given back: 0

Asked: # lookup: %Inh of c1ccc(-c2n[nH]cc2Nc2ccnc3ccccc23)nc1
Given back: 0
